From: the supplement of paper PMC10567573

Please provide measured protein stability index for the entries that follow.
B1: CAMK2A (parent)
chain: ILLVGYPPFWDEDQHRLYKQIKAG

variants of: B1; assay: protein stability index of a GFP-peptide fusion (GPS, HEK-293T) (PSI 1-6); higher = more stable; conditions: c terminus: a fixed tail appended;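 also: lentivirally expressed fusions sorted by FACS into six bins by GFP to DsRed ratio, PSI derived from sequencing read proportions per bin multiplied by bin number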

The examples below pair each entry with its known result.
# seq-text, protein stability index
data = [
    ("ILLVGYPPFWDEDQHRLYKQIIAG [K22I]", 2.55),
    ("ILLVRYPPFWDEDQHRLYKQIKAG [G5R]", 2.65),
]

Required: protein stability index, one value per variant below.
1. ILLVGNPPFWDEDQHRLYKQIKAG [Y6N]
2. ILLVGYPPFWDEDQHRLYKQIKAL [G24L]
3. ILLVGYPPFWDEDQHRLYPQIKAG [K19P]
4. ILLVGYPPFWDEDQHRLYKLIKAG [Q20L]
5. ILTVGYPPFWDEDQHRLYKQIKAG [L3T]
6. ILLVGSPPFWDEDQHRLYKQIKAG [Y6S]

Output line:
[1.93, 1.8, 1.73, 2.6, 1.97, 1.43]

Please look at the items below and tell me protein stability index for each one, in order.
1. ILLVGYPPFWDEHQHRLYKQIKAG [D13H]
2. ILLVGYPPFWDEDQHRAYKQIKAG [L17A]
3. ILLVGYPPFWDEDQHRLYEQIKAG [K19E]
4. ILLVGYPPFWDEDQHRLYKQWKAG [I21W]
5. ILLVGYLPFWDEDQHRLYKQIKAG [P7L]

Output line:
[2.2, 1.62, 1.87, 2.4, 2.89]

Give measured protein stability index for every item shown.
1. ILLVGYPPFWDEDQHRLYKQIYAG [K22Y]
2. ILLVGYPPFWDEDQHRLLKQIKAG [Y18L]

Output line:
2.43
2.48
